Catalogue of Solubility readings, one per entry.
# assay_explanation: Solubility in PBS
# Assay type: physicochemical
# test_context: Solubility (uM)
experimental_endpoint: Solubility

{"compound": "CC(=O)N1CCC[C@]12CC=CCCCC1(CCCC=CCCCOC(=O)N3CC[C@@](C(=O)N[C@@H](Cc4ccccc4Cl)C(=O)N[C@@H](Cc4csc5ccccc45)C(=O)N[C@@H](Cc4c[nH]cn4)C(N)=O)(C3)NC(=O)[C@H](CC(N)=O)NC(=O)[C@H](Cc3ccccc3)NC(=O)[C@H](C)NC(=O)[C@H](C)NC(=O)[C@H](CC(=O)O)NC(=O)[C@H](CC(=O)O)NC1=O)NC(=O)[C@H](CC(C)(C)C)NC(=O)[C@H](CC(=O)O)NC2=O (stereo partly shown)", "result": "21 µM"}
{"compound": "COc1ccccc1C[C@H](NC(=O)[C@]12CCN(C1)C(=O)OCCCC=CCCCC1(CCCC=CC[C@]3(CCCN3C(C)=O)C(=O)N[C@@H](CC(=O)O)C(=O)N[C@@H](CC(C)(C)C)C(=O)N1)C(=O)N[C@@H](CC(=O)O)C(=O)N[C@@H](CC(=O)O)C(=O)N[C@@H](C)C(=O)N[C@@H](C)C(=O)N[C@@H](Cc1ccccc1)C(=O)N[C@@H](CO)C(=O)N2)C(=O)N[C@@H](Cc1csc2ccccc12)C(=O)N[C@@H](CO)C(N)=O (stereo partly shown)", "result": "46 µM"}
{"compound": "COC[C@@H]1NC(=O)[C@H](CC(=O)O)NC(=O)[C@]2(CC=CCCCC3(CCCC=CCCCCCC[C@@](C)(C(=O)N[C@@H](Cc4ccccc4)C(=O)N[C@@H](Cc4csc5ccccc45)C(=O)N[C@@H](CCC(N)=O)C(N)=O)NC(=O)[C@H](C(C)C)NC(=O)[C@H](Cc4ccccc4)NC(=O)[C@H](C)NC(=O)[C@H](C)NC(=O)[C@H](CC(=O)O)NC(=O)[C@H](CC(=O)O)NC3=O)NC1=O)CCCN2C(C)=O (stereo partly shown)", "result": "49 µM"}
{"compound": "CC(=O)N1CCC[C@]12CC=CCCCC1(CCCC=CCCCOC(=O)N3CC[C@@](C(=O)N[C@@H](Cc4ccccc4)C(=O)N[C@@H](Cc4csc5ccccc45)C(=O)N[C@@H](CCC(N)=O)C(N)=O)(C3)NC(=O)[C@H](CC(C)C)NC(=O)[C@H](Cc3ccccc3)NC(=O)[C@H](C)NC(=O)[C@H](C)NC(=O)[C@H](CC(=O)O)NC(=O)[C@H](CC(=O)O)NC1=O)NC(=O)[C@H](CC(C)(C)C)NC(=O)[C@H](CC(=O)O)NC2=O (stereo partly shown)", "result": "35 µM"}
{"compound": "CC(=O)N1CCC[C@]12CC=CCCCC1(CCCC=CCCCOC(=O)N3CC[C@@](C(=O)N[C@@H](Cc4ccccc4)C(=O)N[C@@H](Cc4csc5ccccc45)C(=O)N[C@@H](CO)C(N)=O)(C3)NC(=O)[C@H](CO)NC(=O)[C@H](Cc3ccccc3)NC(=O)[C@H](C)NC(=O)[C@H](C)NC(=O)[C@H](CC(=O)O)NC(=O)[C@H](CC(=O)O)NC1=O)NC(=O)[C@H](CC1CCCCC1)NC(=O)[C@H](CC(=O)O)NC2=O (stereo partly shown)", "result": "46 µM"}
{"compound": "CC(=O)N1CCC[C@]12CC=CCCCC1(CCCC=CCCCOC(=O)N3CC[C@@](C(=O)N[C@@H](Cc4ccsc4)C(=O)N[C@@H](Cc4csc5ccccc45)C(N)=O)(C3)NC(=O)[C@H](CC(N)=O)NC(=O)[C@H](Cc3ccccc3)NC(=O)[C@H](C)NC(=O)[C@H](C)NC(=O)[C@H](CC(=O)O)NC(=O)[C@H](CC(=O)O)NC1=O)NC(=O)[C@H](CC(C)(C)C)NC(=O)[C@H](CC(=O)O)NC2=O (stereo partly shown)", "result": "42 µM"}
{"compound": "CC(=O)N1CCC[C@]12CC=CCCCC1(CCCC=CCCCOC(=O)N3CC[C@@](C(=O)N[C@@H](Cc4ccsc4)C(=O)N[C@@H](Cc4csc5ccccc45)C(=O)N[C@@H](CCC(N)=O)C(=O)N[C@@H](CCCCNC(=O)c4ccc(CN(C)C)cc4)C(N)=O)(C3)NC(=O)[C@H](CC(N)=O)NC(=O)[C@H](Cc3ccccc3)NC(=O)[C@H](C)NC(=O)[C@H](C)NC(=O)[C@H](CC(=O)O)NC(=O)[C@H](CC(=O)O)NC1=O)NC(=O)[C@H](CC(C)(C)C)NC(=O)[C@H](CC(=O)O)NC2=O (stereo partly shown)", "result": "40 µM"}
{"compound": "CC(=O)N1CCC[C@]12CC=CCCCC1(CCCC=CCCCCCC[C@@](C)(C(=O)N[C@@H](Cc3cccs3)C(=O)N[C@@H](Cc3csc4ccccc34)C(=O)N[C@@H](CCC(N)=O)C(N)=O)NC(=O)[C@H](CCC(N)=O)NC(=O)[C@H](Cc3ccccc3)NC(=O)[C@H](C)NC(=O)[C@H](C)NC(=O)[C@H](CCC(=O)O)NC(=O)[C@H](CC(=O)O)NC1=O)NC(=O)[C@H](C)NC(=O)[C@H](CC(=O)O)NC2=O (stereo partly shown)", "result": "14 µM"}
{"compound": "CC(=O)N1CCC[C@]12CC=CCCCC1(CCCC=CCCCOC(=O)N3CC[C@@](C(=O)N[C@@H](Cc4ccsc4)C(=O)N[C@@H](Cc4csc5ccccc45)C(=O)N[C@@H](CCC(N)=O)C(=O)N[C@H](C)C(N)=O)(C3)NC(=O)[C@H](CC(N)=O)NC(=O)[C@H](Cc3ccccc3)NC(=O)[C@H](C)NC(=O)[C@H](C)NC(=O)[C@H](CC(=O)O)NC(=O)[C@H](CC(=O)O)NC1=O)NC(=O)[C@H](CC(C)(C)C)NC(=O)[C@H](CC(=O)O)NC2=O (stereo partly shown)", "result": "46 µM"}
{"compound": "COc1ccccc1C[C@H](NC(=O)[C@]1(C)CCCCCCC=CCCCC2(CCCC=CC[C@]3(CCCN3C(C)=O)C(=O)N[C@@H](CC(=O)O)C(=O)N[C@@H](C)C(=O)N2)C(=O)N[C@@H](CC(=O)O)C(=O)N[C@@H](CCC(=O)O)C(=O)N[C@@H](C)C(=O)N[C@@H](C)C(=O)N[C@@H](Cc2ccccc2)C(=O)N[C@@H](CC(N)=O)C(=O)N1)C(=O)N[C@@H](Cc1csc2ccccc12)C(=O)N[C@@H](CCC(N)=O)C(N)=O (stereo partly shown)", "result": "44 µM"}

Where these numbers come from: patent US20240116985A1
